Cited source for all entries: patent US9193744B2

Below: a set of entries, each annotated with reported pIC50.
Test system: OCN
Procedure Text: MG-63 Cell Assay to Measure Bone Markers (inhibition of Vitamin K/Vitamin D-induced OCN)
Assay type: cell-based
Run Parameters: Homo sapiens, MG63 cells
Description: MG-63 Cell Assay to Measure Bone Markers MG-63 cells were cultured in culture media containing ascorbic acid (DMEM/F12 supplemented with 10% FBS, 1% HEPES, 100 U/mL-100 μg/mL Pen-Strep, and 100 μg/mL of ascorbic acid) for, minimally, 1 week before study. […] Cell-free supenatant (150 μL/well) was collected and OCN was measured by MSD kit, following protocol of manufacturer, and using MSD SECTOR Imager 6000 instrument. […]
pIC50: −log10 of the molar value.

Examples from the recorded data:
- Compound: "COC[C@@]1(O)CC[C@@]2(Cc3ccccn3)c3cc4cnn(-c5ccc(F)cc5)c4cc3CCC[C@H]2C1 (single isomer, unassigned) [Example 12]"
  pIC50: "> 7.00"
- Compound: "CC[C@@]12CC[C@@](O)(COC)C[C@H]1CCCc1cc3c(cnn3-c3ccc(F)cc3)cc12 (single isomer, unassigned) [Example 7]"
  pIC50: "< 5.00"

For the next question, use this compound.
Fill in the blank: the reported pIC50 of CC[C@@]12CC[C@@](O)(C(F)(F)F)C[C@@H]1CCCc1cc3c(cnn3-c3ccc(F)cc3)cc12 (single isomer, unassigned) [Example 3] is ____. 6.00 to 7.00

====

Target sequence: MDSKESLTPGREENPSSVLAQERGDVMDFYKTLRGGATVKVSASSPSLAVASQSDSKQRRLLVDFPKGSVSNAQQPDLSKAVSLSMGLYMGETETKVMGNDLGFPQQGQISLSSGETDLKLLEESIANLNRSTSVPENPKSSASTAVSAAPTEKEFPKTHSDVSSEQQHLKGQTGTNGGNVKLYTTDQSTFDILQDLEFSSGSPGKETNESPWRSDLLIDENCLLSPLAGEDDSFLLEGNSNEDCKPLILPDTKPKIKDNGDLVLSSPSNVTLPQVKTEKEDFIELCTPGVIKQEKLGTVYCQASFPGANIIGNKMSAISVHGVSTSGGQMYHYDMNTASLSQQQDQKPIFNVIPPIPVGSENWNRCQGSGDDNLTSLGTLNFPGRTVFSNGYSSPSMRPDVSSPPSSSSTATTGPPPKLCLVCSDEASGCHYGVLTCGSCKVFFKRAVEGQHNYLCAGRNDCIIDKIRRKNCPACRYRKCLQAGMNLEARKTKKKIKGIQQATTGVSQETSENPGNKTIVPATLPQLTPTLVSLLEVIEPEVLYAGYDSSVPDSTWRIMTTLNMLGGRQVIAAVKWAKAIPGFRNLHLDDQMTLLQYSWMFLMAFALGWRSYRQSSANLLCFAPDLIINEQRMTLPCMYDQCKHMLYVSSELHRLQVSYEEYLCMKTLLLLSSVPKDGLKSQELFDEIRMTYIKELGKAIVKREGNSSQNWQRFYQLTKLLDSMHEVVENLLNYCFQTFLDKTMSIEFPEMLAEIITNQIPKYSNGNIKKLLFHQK
pIC50: −log10 of the molar value.
Below: a set of entries, each annotated with reported pIC50.

Examples from the recorded data:
- Molecule: "N#CC[C@]1(O)CC[C@]2(Cc3ccccn3)c3cc4cnn(-c5ccncc5)c4cc3CCC[C@@H]2C1"
  pIC50: "> 7.00"
- Molecule: "C[C@]1(O)CC[C@]2(Cc3ncccn3)c3cc4cnn(-c5ccc(F)cc5)c4nc3CCC[C@@H]2C1"
  pIC50: "6.00 to 7.00"

For the next question, use this molecule.
Fill in the blank: the reported pIC50 of CC[C@]12CC[C@@](O)(COC)C[C@H]1CCCc1cc3c(cnn3-c3ccccn3)cc12 is ____. 6.00 to 7.00

====

Test system: OCN
Procedure Text: MG-63 Cell Assay to Measure Bone Markers (inhibition of Vitamin K/Vitamin D-induced OCN)
Type: cell-based
Run Parameters: Homo sapiens, MG63 cells
Below: a set of entries, each annotated with reported IC50.

Fill in the blank: the reported IC50 of CCC[C@]1(O)CC[C@@]2(CC)c3cc4cnn(-c5ccc(F)cc5)c4cc3CCC[C@@H]2C1 (racemic) [Example 4] is ____. < 100 nM

Fill in the blank: the reported IC50 of COC[C@]1(O)CC[C@]2(Cc3ccccn3)c3cc4cnn(-c5ccc(F)cc5)c4cc3CCC[C@@H]2C1 (single isomer, unassigned) is ____. < 100 nM

Fill in the blank: the reported IC50 of CCOC[C@]1(O)CC[C@@]2(CC)c3cc4cnn(-c5ccc(F)cc5)c4cc3CCC[C@@H]2C1 (single isomer, unassigned) is ____. > 10000 nM

Fill in the blank: the reported IC50 of CC[C@@]12CC[C@@](O)(C(F)(F)F)C[C@@H]1CCCc1cc3c(cnn3-c3ccc(F)cc3)cc12 (racemic) [Example 1] is ____. < 100 nM

Fill in the blank: the reported IC50 of CC[C@@]12CC[C@](O)(COC)C[C@@H]1CCCc1cc3[nH]ncc3cc12 (racemic) is ____. > 10000 nM

Fill in the blank: the reported IC50 of CCC[C@]1(O)CC[C@@]2(CC)c3cc4cnn(-c5ccc(F)cc5)c4cc3CCC[C@@H]2C1 (single isomer, unassigned) [Example 5] is ____. > 10000 nM

Fill in the blank: the reported IC50 of COC[C@@]1(O)CC[C@@]2(Cc3ccccn3)c3cc4cnn(-c5ccc(F)cc5)c4cc3CCC[C@H]2C1 (racemic) [Example 11] is ____. < 100 nM

====

System: IL-6
Procedure Text: A549 Cell Assay to Measure Inflammation Markers (inhibition of IL-1β-induced IL-6)
Type: cell-based
Run Parameters: Homo sapiens, A549, read-out: A549 cell assay
Experimental Readout: IC50

- Compound: "N#CC[C@@]12CC[C@](O)(C(F)(F)F)C[C@H]1CCCc1cc3c(cnn3-c3ccc(F)cc3)cc12 (single isomer, unassigned) [Example 81]"
  Result: "< 0.1 µM"

For the next question, use this compound.
State its IC50 on IL-6: N#C[C@]12CC[C@@](O)(C(F)(F)F)C[C@@H]1CCCc1cc3c(cnn3-c3ccc(F)cc3)cc12 (single isomer, unassigned) [Example 73] > 10 µM

====

Below: a set of entries, each annotated with reported pIC50.
Target protein (sequence): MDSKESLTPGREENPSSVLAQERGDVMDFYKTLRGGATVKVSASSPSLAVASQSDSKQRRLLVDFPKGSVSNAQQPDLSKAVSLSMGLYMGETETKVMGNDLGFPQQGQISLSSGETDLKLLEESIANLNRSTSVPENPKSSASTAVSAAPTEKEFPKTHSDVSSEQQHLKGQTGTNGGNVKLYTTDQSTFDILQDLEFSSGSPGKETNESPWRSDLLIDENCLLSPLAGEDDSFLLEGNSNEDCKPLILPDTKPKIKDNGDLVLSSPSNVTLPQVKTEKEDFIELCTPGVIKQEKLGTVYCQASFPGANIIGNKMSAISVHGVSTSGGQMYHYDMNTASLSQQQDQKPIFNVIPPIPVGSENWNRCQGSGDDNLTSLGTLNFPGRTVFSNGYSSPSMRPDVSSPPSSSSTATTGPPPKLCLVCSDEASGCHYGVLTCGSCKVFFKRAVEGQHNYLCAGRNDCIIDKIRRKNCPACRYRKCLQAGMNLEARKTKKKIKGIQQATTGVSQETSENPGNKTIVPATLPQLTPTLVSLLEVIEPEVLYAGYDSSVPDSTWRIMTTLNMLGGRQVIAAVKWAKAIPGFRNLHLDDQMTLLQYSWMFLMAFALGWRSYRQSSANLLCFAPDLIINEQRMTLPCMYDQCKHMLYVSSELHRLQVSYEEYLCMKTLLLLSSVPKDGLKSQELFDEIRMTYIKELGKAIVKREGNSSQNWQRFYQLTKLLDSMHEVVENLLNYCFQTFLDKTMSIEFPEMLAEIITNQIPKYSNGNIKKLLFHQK
pIC50: −log10 of the molar value.

Examples from the recorded data:
- Compound: "COC[C@]1(O)CC[C@]2(Cc3ccccn3)c3cc4cnn(-c5ccc(F)cc5)c4cc3CCC[C@@H]2C1 (single isomer, unassigned)"
  pIC50: "> 7.00"
- Compound: "CC[C@@]12CC[C@](O)(COC)C[C@@H]1CCOc1cc3c(cnn3-c3ccncc3)cc12 (racemic)"
  pIC50: "> 7.00"
- Compound: "CC[C@@]12CC[C@@](C)(O)C[C@@H]1CCOc1cc3c(cnn3-c3ccnc(C)c3)cc12"
  pIC50: "> 7.00"
- Compound: "O=C(NC1CC1)[C@@]12CC[C@](O)(C(F)(F)F)C[C@H]1CCCc1cc3c(cnn3-c3ccc(F)cc3)cc12 (single isomer, unassigned)"
  pIC50: "6.00 to 7.00"
- Compound: "Cc1cc(-n2ncc3cc4c(cc32)CCC[C@H]2C[C@](C)(O)CC[C@@]42Cc2ccccn2)ccn1"
  pIC50: "> 7.00"

Fill in the blank: the reported pIC50 of CC[C@@]12CC[C@](O)(COC)C[C@@H]1CCCc1cc3c(cnn3-c3ccc(F)cc3)cc12 is ____. > 7.00

Fill in the blank: the reported pIC50 of COC[C@]1(O)CC[C@]2(Cc3ccccn3)c3cc4cnn(-c5ccc(F)cc5)c4nc3CCC[C@H]2C1 is ____. 6.00 to 7.00

Fill in the blank: the reported pIC50 of CC[C@@]12CC[C@](O)(COC)C[C@@H]1CCOc1cc3c(cnn3-c3nnc(C)s3)cc12 (racemic) is ____. 6.00 to 7.00

Fill in the blank: the reported pIC50 of CS(=O)(=O)NC[C@@]12CC[C@](O)(C(F)(F)F)C[C@H]1CCCc1cc3c(cnn3-c3ccc(F)cc3)cc12 is ____. > 7.00

Fill in the blank: the reported pIC50 of COC[C@]1(O)CC[C@]2(Cc3ncccn3)c3cc4cnn(-c5ccc(F)cc5)c4nc3CCC[C@@H]2C1 is ____. 6.00 to 7.00

Fill in the blank: the reported pIC50 of CC[C@]12CC[C@@](OP(=O)(O)O)(C(F)(F)F)C[C@@H]1CCCc1cc3c(cnn3-c3ccc(F)cc3)cc12 is ____. 6.00 to 7.00

Fill in the blank: the reported pIC50 of C[C@@]1(O)CC[C@@]2(Cc3ccccn3)c3cc4cnn(-c5ccc(F)cc5)c4nc3CCC[C@H]2C1 (single isomer, unassigned) is ____. > 7.00

Fill in the blank: the reported pIC50 of N#CC[C@@]1(O)CC[C@@]2(Cc3ccccn3)c3cc4cnn(-c5ccc(F)cc5)c4cc3CCC[C@H]2C1 (single isomer, unassigned) is ____. > 7.00

Fill in the blank: the reported pIC50 of N#C[C@]12CC[C@@](O)(C(F)(F)F)C[C@@H]1CCCc1cc3c(cnn3-c3ccc(F)cc3)cc12 (single isomer, unassigned) is ____. 6.00 to 7.00

Fill in the blank: the reported pIC50 of C[C@@]1(O)CC[C@@]2(Cc3ccccn3)c3cc4cnn(-c5ccc(F)cc5)c4cc3CCC[C@H]2C1 (single isomer, unassigned) is ____. > 7.00

Fill in the blank: the reported pIC50 of O[C@@]1(C(F)(F)F)CC[C@@]2(Cc3ccccn3)c3cc4cnn(-c5ccc(F)cc5)c4nc3CCC[C@H]2C1 (racemic) is ____. 6.00 to 7.00
